Reference source: patent US20200323888A1

# system.tested: T1, MBP-HishNAA80 fusion protein (MBP-Naa80) (human, UniProt Q93015-2 1-308)
# T1 sequence (looked up): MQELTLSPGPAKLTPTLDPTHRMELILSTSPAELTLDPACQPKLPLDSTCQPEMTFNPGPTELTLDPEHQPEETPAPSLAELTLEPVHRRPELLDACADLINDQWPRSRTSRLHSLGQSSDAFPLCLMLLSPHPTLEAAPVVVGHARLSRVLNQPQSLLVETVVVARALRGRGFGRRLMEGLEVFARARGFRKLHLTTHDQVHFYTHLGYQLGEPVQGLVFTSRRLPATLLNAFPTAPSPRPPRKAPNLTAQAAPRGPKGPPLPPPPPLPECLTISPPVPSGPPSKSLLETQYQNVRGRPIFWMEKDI
# assay.notes: cell-based or functional assay
CoA = coenzyme A
experimental.readout: IC50 (µM), Nt-acetylation inhibition

These recorded examples may help you get a feel for the data.
{"binder": "{CoA-Ac}-DEEI-NH2 [DEEI (Naa80 bisubstrate analogue inhibitor)]", "assay.result": 1.22}
{"binder": "{CoA-Ac}-DDDI-NH2 [CoA-Ac-DDDI-NH2]", "assay.result": 0.38}
{"binder": "{CoA-Ac}-QEEI-NH2 [QEEI (Naa80 bisubstrate analogue inhibitor)]", "assay.result": 2.23}
{"binder": "{CoA-Ac}-DEDI-NH2 [DEDI (Naa80 bisubstrate analogue inhibitor)]", "assay.result": 3.12}
{"binder": "{CoA-Ac}-EDEI-NH2 [EDEI (Naa80 bisubstrate analogue inhibitor)]", "assay.result": 0.76}

(a) {CoA-Ac}-DDEI-NH2 [DDEI (Naa80 bisubstrate analogue inhibitor)]
(b) {CoA-Ac}-EDDI-NH2 [EDDI (Naa80 bisubstrate analogue inhibitor)]
(c) {CoA-Ac}-DEEL-NH2 [DEEL (Naa80 bisubstrate analogue inhibitor)]
(d) {CoA-Ac}-EEDL-NH2 [EEDL (Naa80 bisubstrate analogue inhibitor)]
(e) {CoA-Ac}-EEEI-NH2 [CoA-Ac-EEEI-NH2]
Order the 5 binders from highest to lowest IC50 (µM), Nt-acetylation inhibition. Labels, requested order. c, a, d, e, b
(c: 4.73 µM, a: 2.67 µM, d: 1.76 µM, e: 1.16 µM, b: 0.12 µM)
